Assay: Intrinsic clearance in mouse liver microsomes at 1 uM preincubated for 10 mins followed by NADPH addition measured up to 30 mins by LC-MS/MS analysis
Format: ADME, Microsome
Details: read-out: CLH
observed.property: CLint scaled at 1 µM (mL/min/kg)
Provide only the numeric value, understood in mL/min/kg.

**Q:** Entry COC(=O)C1=C(CN2CCC(O)CC2)NC(c2nccs2)=NC1(C)c1ccc(F)cc1 (centres undefined) has what CLint scaled at 1 µM?
**A:** 81

**Q:** Moving on to the next molecule: COC(=O)C1=C(C)NC(c2nccs2)=NC1(C)c1ccc(F)c(F)c1 (centres undefined)
**A:** 83

**Q:** And then "COC(=O)C1=C(CN2CCC[C@H]2C(=O)O)NC(c2nccs2)=N[C@@]1(C)c1ccc(F)cc1" , what is it?
**A:** 14

**Q:** Try this molecule next: COC(=O)C1=C(CN2CCC(F)(F)CC2)NC(c2nccs2)=NC1(C)c1ccc(F)cc1 (centres undefined)
**A:** 88

**Q:** Okay, and CC1(c2ccc(F)cc2)N=C(c2nccs2)NC(CN2CCOCC2)=C1c1ncco1 (centres undefined) ?
**A:** 89

**Q:** Also COC(=O)C1=C(CN2CCOCC2=O)NC(c2nccs2)=NC1(C)c1ccc(F)cc1 (centres undefined) ?
**A:** 80

**Q:** What about this molecule? "COC(=O)C1=C(CN2CCOCC2)NC(c2nccs2)=N[C@@]1(C)c1ccc(F)cc1"
**A:** 81

**Q:** Likewise for COC(=O)C1=C(CN2CC3CC2CO3)NC(c2nccs2)=NC1(C)c1ccc(F)cc1 (centres undefined) ?
**A:** 84

**Q:** Try this molecule next: COC(=O)C1=C(COCC(F)(F)F)NC(c2nccs2)=NC1(C)c1ccc(F)cc1 (centres undefined)
**A:** 81

**Q:** Same for COC(=O)C1=C(COC(C(=O)O)C(F)(F)F)NC(c2nccs2)=NC1(C)c1ccc(F)cc1 (centres undefined)
**A:** 24

**Q:** Same thing, different molecule: COC(=O)C1=C(C)NC(c2nccs2)=NC1(C)c1ccc(Cl)cc1 (centres undefined)
**A:** 85

**Q:** Same lookup for COC(=O)C1=C(C)NC(c2nccs2)=NC1(C)c1ccc(C#N)cc1 (centres undefined) , please.
**A:** 75

**Q:** // same read-out, input: COC(=O)C1=C(CN2CCNCC2)NC(c2nccs2)=NC1(C)c1ccc(F)cc1 (centres undefined)
**A:** 39

**Q:** CC1(c2ccc(F)cc2)N=C(c2nccs2)NC(CN2CCOCC2)=C1C(=O)O (centres undefined) , same question.
**A:** 6

**Q:** And for COC(=O)C1=C(Cn2ccnc2)NC(c2nccs2)=NC1(C)c1ccc(F)cc1 (centres undefined) ?
**A:** 69

**Q:** Further, for "COC(=O)C1=C(CN2CCOCC2)NC(c2nccs2)=N[C@@]1(C)c1ccc(F)c(F)c1" ?
**A:** 89

**Q:** Moving on to "COC(=O)C1=C(CN2CCC[C@@H]2C(=O)O)NC(c2nccs2)=N[C@@]1(C)c1ccc(F)cc1"
**A:** 60

**Q:** Quick one: "COC(=O)C1=C(CN2CC(F)(F)C[C@H]2C(=O)OC)NC(c2nccs2)=N[C@@]1(C)c1ccc(F)cc1"
**A:** 90

**Q:** Repeat for the following molecule: "COC(=O)C1=C(CN2CCOC[C@@H]2C(=O)O)NC(c2nccs2)=N[C@@]1(C)c1ccc(F)cc1"
**A:** 61

**Q:** Follow-up entry: COC(=O)C1=C(C)NC(c2nccs2)=NC1(C)c1ccc(S(C)(=O)=O)cc1 (centres undefined)
**A:** 57

**Q:** Same for COC(=O)C1=C(CN2CCOCC2(C)C)NC(c2nccs2)=NC1(C)c1ccc(F)cc1 (centres undefined)
**A:** 88

**Q:** Quick one: COC(=O)C1=C(COC2CCOC2)NC(c2nccs2)=NC1(C)c1ccc(F)cc1 (centres undefined)
**A:** 79

**Q:** Next: COC(=O)C1=C(CN2CC(OC)C2)NC(c2nccs2)=NC1(C)c1ccc(F)cc1 (centres undefined)
**A:** 88

**Q:** Similarly, COC(=O)C1=C(CN2CCCS2(=O)=O)NC(c2nccs2)=NC1(C)c1ccc(F)cc1 (centres undefined) ?
**A:** 79

**Q:** Moving on to "COC(=O)C1=C(CN2CC(F)(F)C[C@H]2C(=O)O)NC(c2nccs2)=N[C@@]1(C)c1ccc(F)cc1"
**A:** 84

**Q:** Please do the same for COC(=O)C1=C(CN2CCC(O)C2)NC(c2nccs2)=NC1(C)c1ccc(F)cc1 (centres undefined) as well.
**A:** 83

**Q:** Same thing, different molecule: COC(=O)C1=C(CN2CCCCC2)NC(c2nccs2)=NC1(C)c1ccc(F)cc1 (centres undefined)
**A:** 88

**Q:** Same for COC(=O)C1=C(CN2CCNC(=O)C2)NC(c2nccs2)=NC1(C)c1ccc(F)cc1 (centres undefined)
**A:** 81

**Q:** Cool, now "COC(=O)C1=C(CN2CCOC[C@H]2C(=O)O)NC(c2nccs2)=N[C@@]1(C)c1ccc(F)cc1"
**A:** 80

###

Assay: Half life in CD-1 mouse plasma at 5 mg/kg, iv administered as single dose by LC-MS/MS analysis
Format: ADME, organism-based
observed.property: half-life (min)
Only the number, expressed in min, is required.

**Q:** Quick check: half-life of "COC(=O)C1=C(CN2CC(F)(F)C[C@H]2C(=O)O)NC(c2nccs2)=N[C@@]1(C)c1ccc(F)cc1" ?
**A:** 10.8
